Reference source: patent US20260248963A1

System: MTRX-1133 resistant PANC-1 cells
Assay: Cell growth inhibition assay, MTRX-1133 resistant PANC-1
Type: cell-based
ENDPOINT NAME: IC50 (µM)
Please give a number only; it is taken to be in µM.

Q. # lookup: MTRX-1133 resistant PANC-1 cells IC50, key = "C#Cc1c(F)ccc2cc(O)cc(-c3ncc4c(N5CC6CCC(C5)N6)nc(OC[C@@]56CCCN5C[C@H](F)C6)nc4c3F)c12"
A. 4.75
